Where do the numbers come from? From ChEMBL document CHEMBL1932966.

Target or system Adenosine receptor A2a (Homo sapiens); recorded quantity pKi.
A value of pKi is the negative decimal logarithm of a concentration given in moles per litre.

### Prompt Consider the molecule COc1ccc(NC(=O)Nc2nc3cn(CCCc4ccccc4)cc3c3nc(-c4ccco4)nn23)cc1 . State its measured pKi.
### Response 6.89

### Prompt Consider the molecule COc1ccc(NC(=O)Nc2nc3cnn(C)c3c3nc(-c4ccco4)nn23)cc1 . State its measured pKi.
### Response 7.17

### Prompt Consider the molecule COc1ccc(NC(=O)Nc2nc3cn(CCc4ccccc4)nc3c3nc(-c4ccco4)nn23)cc1 . State its measured pKi.
### Response 6.17

### Prompt Consider the molecule CCCn1cc2nc(N)n3nc(-c4ccco4)nc3c2c1 . State its measured pKi.
### Response 7.52

* * *

- Study System: Adenosine receptor A1 (Homo sapiens)
- Sequence (P30542 whole entry): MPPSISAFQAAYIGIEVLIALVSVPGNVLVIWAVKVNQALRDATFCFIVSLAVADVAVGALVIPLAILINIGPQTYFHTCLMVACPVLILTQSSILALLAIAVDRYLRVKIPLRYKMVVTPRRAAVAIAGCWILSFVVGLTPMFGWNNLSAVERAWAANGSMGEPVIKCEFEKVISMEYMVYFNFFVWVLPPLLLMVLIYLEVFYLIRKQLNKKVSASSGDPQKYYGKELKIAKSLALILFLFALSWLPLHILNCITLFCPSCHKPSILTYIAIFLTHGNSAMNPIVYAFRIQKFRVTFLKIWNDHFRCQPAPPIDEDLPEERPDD
Could you mark each record MET if its Ki falls strictly under 7 nM, and NOT MET if it equals or exceeds it?

### Prompt Determine if Cn1cc2nc(N)n3nc(-c4ccco4)nc3c2n1 shows Ki strictly lower than 7 nM.
### Response NOT MET

### Prompt Determine if Nc1nc2cn(CCCc3ccccc3)cc2c2nc(-c3ccco3)nn12 shows Ki strictly lower than 7 nM.
### Response NOT MET

### Prompt Determine if Nc1nc2cn(CCc3ccccc3)nc2c2nc(-c3ccco3)nn12 shows Ki strictly lower than 7 nM.
### Response MET

### Prompt Determine if Cn1cc2nc(NC(=O)Nc3ccncc3)n3nc(-c4ccco4)nc3c2c1 shows Ki strictly lower than 7 nM.
### Response NOT MET

### Prompt Determine if COc1ccc(NC(=O)Nc2nc3cnn(C)c3c3nc(-c4ccco4)nn23)cc1 shows Ki strictly lower than 7 nM.
### Response NOT MET

* * *

- Study System: UniProt P29275
- Sequence (P29275 whole entry): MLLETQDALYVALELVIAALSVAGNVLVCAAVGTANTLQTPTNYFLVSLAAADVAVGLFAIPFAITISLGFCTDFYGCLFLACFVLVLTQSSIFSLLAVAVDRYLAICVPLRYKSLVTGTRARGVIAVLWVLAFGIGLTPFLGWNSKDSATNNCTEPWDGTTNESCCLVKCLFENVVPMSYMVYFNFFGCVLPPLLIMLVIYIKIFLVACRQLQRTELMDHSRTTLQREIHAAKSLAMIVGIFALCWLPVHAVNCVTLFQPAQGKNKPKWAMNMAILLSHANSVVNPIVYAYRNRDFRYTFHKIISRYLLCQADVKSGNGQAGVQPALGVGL
Exercise: for every item that follows, state its recorded IC50.

### Prompt Consider the compound Cn1ncc2nc(N3CCN(c4ccccc4)CC3)n3nc(-c4ccco4)nc3c21 . State its measured IC50.
### Response > 1000 nM

### Prompt Consider the compound Cn1cc2nc(N)n3nc(-c4ccco4)nc3c2n1 . State its measured IC50.
### Response 33 nM

### Prompt Consider the compound CN1CCN(c2nc3cnn(C)c3c3nc(-c4ccco4)nn23)CC1 . State its measured IC50.
### Response > 1000 nM

### Prompt Consider the compound COc1ccc(NC(=O)Nc2nc3cn(CCCc4ccccc4)nc3c3nc(-c4ccco4)nn23)cc1 . State its measured IC50.
### Response > 1000 nM

### Prompt Consider the compound Cn1cc2nc(N)n3nc(-c4ccco4)nc3c2c1 . State its measured IC50.
### Response 42 nM

### Prompt Consider the compound Nc1nc2cn(CCCc3ccccc3)cc2c2nc(-c3ccco3)nn12 . State its measured IC50.
### Response 251 nM

### Prompt Consider the compound Cn1ncc2nc(N)n3nc(-c4ccco4)nc3c21 . State its measured IC50.
### Response 31 nM

### Prompt Consider the compound COc1ccc(NC(=O)Nc2nc3cnn(CCCc4ccccc4)c3c3nc(-c4ccco4)nn23)cc1 . State its measured IC50.
### Response > 1000 nM

### Prompt Consider the compound CCCn1ncc2nc(NC(=O)Nc3ccc(OC)cc3)n3nc(-c4ccco4)nc3c21 . State its measured IC50.
### Response 32 nM

### Prompt Consider the compound Nc1nc2cn(CCCc3ccccc3)nc2c2nc(-c3ccco3)nn12 . State its measured IC50.
### Response 32 nM

### Prompt Consider the compound COc1ccc(NC(=O)Nc2nc3cn(C)nc3c3nc(-c4ccco4)nn23)cc1 . State its measured IC50.
### Response 580 nM

### Prompt Consider the compound Nc1nc2cnn(CCCc3ccccc3)c2c2nc(-c3ccco3)nn12 . State its measured IC50.
### Response 595 nM

### Prompt Consider the compound CCCn1cc2nc(NC(=O)Nc3ccc(OC)cc3)n3nc(-c4ccco4)nc3c2c1 . State its measured IC50.
### Response 906 nM
